- targetOrTestSystem: Caspase-1 (Mus musculus)
- assayOverview: Inhibition of mouse recombinant ICE assessed as ratio of irreversible rate constant K3 to dissociation constant of the reversible binding step Ki pre-incubated for 60 mins with Acetyl-Tyr-Val-Ala-Asp-amino-4-methylcoumarin substrate followed by enzyme addition by fluorescence based assay
measureName: Ratio (M⁻¹ s⁻¹)

[
  {
    "smilesText": "C[C@H](NC(=O)C(=O)Nc1cc(C(F)(F)F)ccc1N1CCOCC1)C(=O)N[C@@H](CC(=O)O)C(=O)COP(=O)(c1ccccc1)c1ccccc1",
    "measureName": "Ratio",
    "number": 369000
  },
  {
    "smilesText": "C[C@H](NC(=O)C(=O)NC1CCCCC1)C(=O)N[C@@H](CC(=O)O)C(=O)COP(=O)(c1ccccc1)c1ccccc1",
    "measureName": "Ratio",
    "number": "2.03e+06"
  },
  {
    "smilesText": "CCCOc1ccc(OCC(=O)[C@H](CC(=O)O)NC(=O)[C@@H](NC(=O)C(=O)Nc2cccc3ccccc23)C(C)C)cc1",
    "measureName": "Ratio",
    "number": 825000
  }
]

(a) CC(C)[C@H](NC(=O)C(=O)Nc1cc(C(C)(C)C)ccc1C(C)(C)C)C(=O)N[C@@H](CC(=O)O)C(=O)COc1c(F)c(F)cc(F)c1F
(b) CC(C)[C@H](NC(=O)C(=O)Nc1ccccc1I)C(=O)N[C@@H](CC(=O)O)C(=O)COc1c(F)c(F)cc(F)c1F
Query string: Identify the entry with the smaller Ratio: a or b . Reply briefly: the label of your chosen item.
Result string: a
